experiment: Antiproliferative activity against human OCI-Ly2 cells measured after 72 hrs by calcein AM dye-based fluorescence assay; type: functional
Quick reference for GI50 among some molecules

[
  {
    "MOLECULE": "CC(C)c1n[nH]c2c(NCc3ccc(-c4ccccn4)cc3)nc(SCC(O)CN3CCNCC3)nc12 (configuration not stated)",
    "GI50, nM": 435
  },
  {
    "MOLECULE": "CC(C)c1n[nH]c2c(NCc3ccc(-c4ccccn4)cc3)nc(SCC(C)(C)N)nc12",
    "GI50, nM": 100
  },
  {
    "MOLECULE": "CC[C@H](CO)Nc1nc(NCc2ccc(-c3ccccn3)cc2)c2ncn(C(C)C)c2n1",
    "GI50, nM": 307
  },
  {
    "MOLECULE": "CC(C)c1n[nH]c2c(NCc3ccc(-c4ccccn4)cc3)nc(S)nc12",
    "GI50, nM": 3240
  },
  {
    "MOLECULE": "CC(C)c1n[nH]c2c(NCc3ccc(-c4ccccn4)cc3)nc(SCC(C)(C)O)nc12",
    "GI50, nM": 610
  },
  {
    "MOLECULE": "CC(C)c1n[nH]c2c(NCc3ccc(-c4ccccn4)cc3)nc(SCC(O)CN)nc12 (racemic)",
    "GI50, nM": 55
  },
  {
    "MOLECULE": "CC(C)c1n[nH]c2c(NCc3ccc(-c4ccccn4)cc3)nc(SCCCO)nc12",
    "GI50, nM": 102
  }
]
